// viability at 24 h, 100 µM lookup, one value per entry
# METHOD: MTT cytotoxicity assay on A549 cells
# Assay type: cell-based
# TEST_SETTINGS: human, A549 cells (non-small cell lung carcinoma cell line); A549, 100 µM, 24 h, MTT; read-out: cell viability rate
Form entry: value (%) — number only.

viability at 24 h, 100 µM reading for `COc1cc(/C=N\NC(N)=S)ccc1OCC(=O)Nc1ccccc1Cl` : 27.7

viability at 24 h, 100 µM reading for `COc1cc(/C=N\NC(N)=S)ccc1OCC(=O)Nc1cccc(C)c1` : 63.7

----------
# STUDY_TARGET: α-glucosidase (from Saccharomyces cerevisiae EC 3.2.1.20) (Saccharomyces cerevisiae)
# Construct: purchased Sigma
# Sequence (P53341 whole entry): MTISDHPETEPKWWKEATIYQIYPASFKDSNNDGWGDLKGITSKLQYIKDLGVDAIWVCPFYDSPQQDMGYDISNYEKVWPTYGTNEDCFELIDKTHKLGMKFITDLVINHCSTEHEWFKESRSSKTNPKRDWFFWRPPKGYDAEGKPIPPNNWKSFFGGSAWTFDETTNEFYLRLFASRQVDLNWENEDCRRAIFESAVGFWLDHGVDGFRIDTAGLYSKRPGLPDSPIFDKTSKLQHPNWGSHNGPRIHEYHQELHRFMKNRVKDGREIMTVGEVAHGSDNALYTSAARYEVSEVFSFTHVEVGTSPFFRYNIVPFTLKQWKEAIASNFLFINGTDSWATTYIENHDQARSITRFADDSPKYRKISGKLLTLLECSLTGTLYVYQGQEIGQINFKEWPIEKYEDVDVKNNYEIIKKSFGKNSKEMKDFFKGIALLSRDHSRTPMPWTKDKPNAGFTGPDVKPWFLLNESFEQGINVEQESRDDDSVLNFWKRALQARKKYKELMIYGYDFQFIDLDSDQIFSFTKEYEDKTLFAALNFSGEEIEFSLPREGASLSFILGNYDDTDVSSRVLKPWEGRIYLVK
# METHOD: biochemical
# Protocol: The method described by Azizian et al. with some modifications was used to assess αglucosidase inhibitory activity of novel derivatives of phenyl carbamoyl methoxy thiosemicarbazone. The enzyme solution was prepared of αglucosidase (1 U/mL) in a […] phosphate buffer (pH: 6.8). […] Finally, absorbance was measured at 405 nm using a spectrophotometer (BioTek ELx808, USA). […] The IC50 values for the tested inhibitors were calculated using Microsoft Excel 2016 software and non-linear regression analysis.
pIC50: −log10 of the molar value.
Rule: pIC50 under 4 gives False, otherwise True.

These solved cases illustrate the format of a correct answer.
>>> category_label("COc1cc(/C=N\\NC(N)=S)ccc1OCC(=O)Nc1ccccc1Cl [7 g]")
"True"
>>> category_label("COc1cc(C=NNC(N)=S)ccc1OCC(=O)NCc1ccccc1 [Compound 7d]")
"False"
>>> category_label("COc1cc(/C=N\\NC(N)=S)ccc1OCC(=O)Nc1cccc([N+](=O)[O-])c1 [Compound 7f]")
"False"
>>> category_label("COc1cc(/C=N\\NC(N)=S)ccc1OCC(=O)Nc1ccc(Cl)cc1 [Compound 7k]")
"False"

-- ask Evaluate COc1cc(/C=N\NC(N)=S)ccc1OCC(=O)Nc1cccc(C)c1 [Compound 7e] : pIC50 at minimum 4?
-- reply True

-- ask Evaluate COc1cc(/C=N\NC(N)=S)ccc1OCC(=O)Nc1ccccc1 [Compound 7a] : pIC50 at minimum 4?
-- reply False
